# measurement.description: yeast display, Sf9 membrane polyspecificity reagent, FACS + sequencing; frameworks hold sequencing errors
value.type: polyreactivity (PSR sort gate)

Some solved cases for reference:
sequence.code	polyreactivity (PSR sort gate)
QVQLVESGGGLVQAGGSLRLSCAASGSIFSTYVMGWYRQAPGKERELVAAISRRGGSTYYADSVKGRFTISRDNAKNTVYLQMNSLKPEDTAVYYCAARGQFRYSFGDYSWGQGTQVTVSS	high polyreactivity
QVQLVESGGGLLQAGGSLRLSCAASGRILGPNAMGWYRQAPGTERELVAAINSGGSTNYADSVKGRFTISRDNAKNTVYLQMNSLKPEDTAVYYCATDKARVAGYGVEYDYWGQGTQVTVSS	low polyreactivity
QVQLVESGGGLVQAGGSLRLSCAASGRIFYANDMGWYRQAPWKERELVAAITNTVSTTYADSVKGRFTISRDNAKNTVYLQMNSLKPEDTAVYYCNGDDPYVPKADMGYWGQGTQVTVSS	low polyreactivity
QVQLVESGGGLVQAGGSLRLSCAASGITFTSNTMGWYRQAPGKERELVAAISKSGGSTYYADSVKGRFTISRDNEKNTVYLQMNSLKPEDTAVYYCNTVSFYDPFGAYGYWGQGTQVTVSS	high polyreactivity
QVQLVESGGGLVQAGGSLRLSCAASGRIFKINAMGWYRQAPGKERELVAAITRSGGTTYYADSVKGRFTISRDNAKNTVYLQMNSLKPEDTAVDYCARAYSLRVVTGDYWGQGTQVTVSS	high polyreactivity

Entry "QVQLVESGGGLVQAGGSLRLSCAASGRIFGLYAMGWYRQAPGKERELVAAISWSGGRTYYADSVKGRFTISRDNAKNNVYLQMNSLKPEDTAVYYCAARSYYRSQYGFDYWGQGTQVTVSS" — recorded polyreactivity (PSR sort gate) = high polyreactivity

Entry "QVQLVESGVGLVQAGGSLRLSCAASGFIFRFYTMGWYRQAPGKERELVAAISGSGGRTYYADSVKGRFTISRDYANNTVYVQMNRLKPEDTEVYYCNKQFLYPSYDYWGQGTQVTVSS" — recorded polyreactivity (PSR sort gate) = high polyreactivity

Entry "QVQLVESGGGLVQAGGSLRLSCAPSGSIFDSNAMGWYRQAPGKERELVAAISSSGARTYYADSVKGRFTISRDNAKNTVYLQMNSLKPEDTAVYYCAARYAGGYYYWGQGTQVTVSS" — recorded polyreactivity (PSR sort gate) = high polyreactivity

Entry "QDQLVESGGGLVQAGGSLRLSCAASGRTFVYNAMGWYRKAPGKVRELVAAITRGGSTNYADSVKGRFTISRDNAKNTVYLQMNILKPEDTAGYYCAAGLKRYGSYPWLKSGMGYWGQGTQVTVSS" — recorded polyreactivity (PSR sort gate) = high polyreactivity

Entry "QVQLVESGGGLVQAGRSLRVRCAASGSTFGLYAKGWYRQAPGKERELVADITWSGGTTYYADSVMGRFTFSRDNAKNTVYLEINSLKPEDTAVYYCAARYPWVYDDFDYWGQGTQVNVSS" — recorded polyreactivity (PSR sort gate) = low polyreactivity

====

# measurement.description: yeast display, Sf9 membrane polyspecificity reagent, FACS + sequencing; frameworks hold sequencing errors

sequence.code	polyreactivity (PSR sort gate)
QVQLVESGGGLVQAGGSLRLSCAASGFIVGHYAMGWYRQAPGQEREFVAAITSGGTTYYADSVKGRFTISRDNAKNTVYLQMNSLKPEDTAVYYCNADDAFRYYWLGLYDYWGQGTQVTVSS	low polyreactivity
QVQLVESGGGLVQAGGSLRLSCAASGSIFAYNAMGWYRQAPGKERELVAAITGSGGSTDYADSVKGRFTISRDNAKNTVYLQMNSLKPEDTAVYYCNADWWSEWKLYDYWGQGTQVTVSS	low polyreactivity
QVQLVESGGGLVQAGGSLRLSCAASGNIFNTNARGWYRQAPGKDTELVAAISWNTGSTYADSVKGRFTISRDNAKKTVDLPMNSLKPEDTAVYYCAADRSHAYYRKNRVDYWGQGTQVTVSS	low polyreactivity
QVQLQESGGGLVQAGGSLRLSCAASCTISQEDWMGWYRQAPGKEREFVAAIGLGSNTNYADSLKGRFTISRDNAKNTVYLQMNSLKPEDTAVSYCAVSVWQYSDHVYRGQGTQVTVSS	low polyreactivity
